Where these numbers come from: ChEMBL document CHEMBL1138181

measurement.target: Proto-oncogene tyrosine-protein kinase Src (Homo sapiens)
Sequence (P12931 2-536 limits assumed): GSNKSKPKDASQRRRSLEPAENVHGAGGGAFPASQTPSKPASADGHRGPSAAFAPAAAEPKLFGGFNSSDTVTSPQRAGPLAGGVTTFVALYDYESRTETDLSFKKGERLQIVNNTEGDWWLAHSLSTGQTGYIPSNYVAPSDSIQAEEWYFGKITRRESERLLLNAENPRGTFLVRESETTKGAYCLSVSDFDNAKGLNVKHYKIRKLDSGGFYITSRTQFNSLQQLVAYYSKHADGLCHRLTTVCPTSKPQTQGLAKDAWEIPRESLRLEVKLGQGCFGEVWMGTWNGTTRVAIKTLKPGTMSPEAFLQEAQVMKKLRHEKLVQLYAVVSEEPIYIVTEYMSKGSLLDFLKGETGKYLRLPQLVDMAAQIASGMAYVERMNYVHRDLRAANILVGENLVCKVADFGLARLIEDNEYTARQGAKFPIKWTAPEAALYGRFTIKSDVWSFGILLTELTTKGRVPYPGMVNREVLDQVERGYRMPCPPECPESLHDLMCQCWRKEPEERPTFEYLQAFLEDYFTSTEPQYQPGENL
test.protocol: Inhibitory activity against Src in cell free assay
parameter: Ki

compound=C(=C/n1ncc2c(N3CCCCCC3)ncnc21)/c1ccccc1 reading="Not Active"
compound="OC(Cn1ncc2c(N3CCOCC3)ncnc21)c1ccccc1 (stereo not given)" reading="Not Active"
compound=C(=C/n1ncc2c(N3CCCCC3)ncnc21)/c1ccccc1 reading="Not Active"
compound="OC(Cn1ncc2c(NCc3ccc(F)cc3)ncnc21)c1ccccc1 (stereo not given)" reading="Not Active"
compound="CCSc1nc(N2CC(C)OC(C)C2)c2cnn(CC(Cl)c3ccccc3)c2n1 (stereo not given)" reading="Not Active"
compound=C(=C/n1ncc2c(NCCc3ccccc3)ncnc21)/c1ccccc1 reading="Not Active"
compound=CSc1nc(N2CCOCC2)c2cnn(/C=C\c3ccccc3)c2n1 reading="Not Active"
compound="CCCCNc1ncnc2c1cnn2CC(O)c1ccccc1 (stereo not given)" reading="Not Active"
compound=CCSc1nc(N2CCOCC2)c2cnn(/C=C\c3ccccc3)c2n1 reading="Not Active"
compound=CSc1nc(NCCc2ccccc2)c2cnn(/C=C\c3ccccc3)c2n1 reading="Not Active"
compound=CCCCNc1ncnc2c1cnn2/C=C\c1ccccc1 reading="Not Active"
compound="CSc1nc(N2CC(C)OC(C)C2)c2cnn(CC(Cl)c3ccccc3)c2n1 (stereo not given)" reading="Not Active"
compound="OC(Cn1ncc2c(N3CCCCC3)ncnc21)c1ccccc1 (stereo not given)" reading="Not Active"
compound=CSc1nc(N2CCCCC2)c2cnn(/C=C\c3ccccc3)c2n1 reading="Not Active"
compound="CSc1nc(N2CC(C)OC(C)C2)c2cnn(/C=C\\c3ccccc3)c2n1 (stereo not given)" reading="Not Active"
compound="CCOCCNc1nc(SC)nc2c1cnn2CC(Cl)c1ccccc1 (stereo not given)" reading="Not Active"
compound=C(=C/n1ncc2c(N3CCOCC3)ncnc21)/c1ccccc1 reading="Not Active"
compound=CSc1nc(NCc2ccccc2)c2cnn(/C=C\c3ccccc3)c2n1 reading="Not Active"
compound="CCCNc1ncnc2c1cnn2CC(O)c1ccccc1 (stereo not given)" reading="Not Active"
compound=C(=C/n1ncc2c(N3CCCC3)ncnc21)/c1ccccc1 reading="Not Active"
